Value source: ChEMBL document CHEMBL1201862

System: NCI-H522
experiment: NCI tumour cell line growth inhibition, 48 h
Calls of active or inactive are those of the source. Rule as the data show it: active = GI50 up to about 1.1 µM and inactive = higher.

compound	assayed system	GI50
CC(C)(C)OC(=O)NC(Cc1ccccc1)OCc1ccccc1 (stereo not given)	NCI-H522	11.4 µM (inactive)
CCC1(O)CC2CC(=O)OC2C1O (stereo not given)	NCI-H522	> 100 µM (inactive)
Nn1c(Nc2ccc(S(N)(=O)=O)cc2)nnc(/C=C/c2c(O)ccc3ccccc23)c1=O	NCI-H522	13.5 µM (inactive)
Cc1ccc(C2=Nc3c(c(C)nn3-c3ccccc3)N=C(C(=O)O)C2)cc1	NCI-H522	> 10 µM (inactive)
CNc1c2c(c3nc4ccccc4c4c3c1N=C4)NCCC2=O	NCI-H522	3.27 µM (inactive)
CCNc1nc2c(ncn2C2CC(O)C(COP(=O)(O)O)O2)c(=O)[nH]1 (stereo not given)	NCI-H522	> 100 µM (inactive)
COC(=O)CC(CNC(=O)OCc1ccccc1)OCc1ccc(OC)cc1 (stereo not given)	NCI-H522	> 100 µM (inactive)
Nc1nccc(NCC2(CO)CCC2)n1	NCI-H522	> 100 µM (inactive)
Nc1nc(Cl)cc(Nc2ccc3c(c2)CCC3)n1	NCI-H522	45.4 µM (inactive)
O=C(c1ccccc1)c1cn(/N=C\c2ccccc2)c(=O)nc1-c1ccccc1	NCI-H522	> 100 µM (inactive)
COC(=O)c1ccc(-n2c(C)nc(=O)c(-c3ccccc3)c2C)cc1	NCI-H522	> 100 µM (inactive)
O=C(c1ccc(Cl)cc1)N(C(=S)OC12CC3CC(CC(C3)C1)C2)c1ccccc1	NCI-H522	21.1 µM (inactive)
COc1ccc(C2S/C(=C\c3cccc(OC)c3)C(=O)N2NC(=O)Cc2ccccc2)cc1 (stereo not given)	NCI-H522	> 100 µM (inactive)
CCN(CC)C(=O)CNC(=O)OC(C)(C)C	NCI-H522	> 100 µM (inactive)
CC(=O)OC1CC2C(C)(C)OC(=O)CC(OC(C)=O)[C@]2(C)C2CCC3(C)C(=CCC3[C@H]3COC(=O)C3)[C@]12C (stereo not given in full)	NCI-H522	83.4 µM (inactive)

* * *

Test system: Malme-3M
experiment: NCI tumour cell line growth inhibition, 48 h
Active and inactive are the calls of the source. Rule as the data show it: active = GI50 up to about 1.1 µM and inactive = higher.
measurement label: GI50

molecule	observed
NC(=O)C(c1ccccc1)N1OC2C(=O)N(c3ccccc3)C(=O)C2C1c1c2ccccc2c(Cl)c2ccccc12 (stereo not given)	> 100 µM (inactive)
O=C1OC(=O)C2C1C(c1ccccc1[N+](=O)[O-])C=C(c1ccco1)N2c1ccncc1 (stereo not given)	25.1 µM (inactive)
COc1ccccc1N1C(=O)/C(=C\c2ccccc2)SC1c1cc(OC)c(OC)c(OC)c1 (stereo not given)	45.5 µM (inactive)
O=C(O)CN(c1ccccc1)S(=O)(=O)c1cccc([N+](=O)[O-])c1	> 100 µM (inactive)
N#CC(Cc1ccccc1)N(CCC1=CCCCC1)Cc1ccccc1 (stereo not given)	40.8 µM (inactive)

* * *

System: Hs-578T
experiment: NCI tumour cell line growth inhibition, 48 h
Activity calls are given as the source filed them. No stated cut-off is given here; in the data, active = GI50 up to about 1.1 µM and inactive = higher.
Listing: GI50 of selected compounds

compound	GI50
Cc1nc2ccccc2n1COC(Cn1ccnc1)c1ccc(Cl)cc1Cl (centres undefined)	81.7 µM (inactive)
CC[C@H](CC[C@@H](C)[C@H]1CC[C@H]2[C@@H]3CC=C4C[C@@H](O)CC[C@]4(C)[C@H]3CC[C@]12C)C(C)C	> 100 µM (inactive)
O=C1Nc2ccc(S(=O)(=O)N(CCO)CCO)cc2/C1=C1/Nc2ccccc2C1=O	> 100 µM (inactive)
CC(C)(C)[C@H]1CCC2(OCCO2)[C@](O)(CCCO)C1	> 100 µM (inactive)
CC1=CC(=O)/C(=C/NC(=O)NN)C(=O)O1	> 100 µM (inactive)
N#Cc1nc(COCc2ccccc2)oc1N	> 100 µM (inactive)
CC(=C/C=C/C=C(C)\C=C\C=C(\C)C(=O)O)/C=C/C=C(/C)C(=O)O	> 100 µM (inactive)
CC(=O)/C=C(/C=N/O)c1ccccc1	> 100 µM (inactive)
COc1ccc2nc3c([N+](=O)[O-])ccc4c3c(c2c1)N(CCCN(C)C)C(=S)N4CCCN(C)C	7.94 µM (inactive)
